Reference for the values: patent US20250338849A1

- Test system: Pyricularia oryzae
- assay.notes: microbe, parasite or virus in culture
- Assay type: cell-based
- condition.context: Pyricularia oryzae, 168 h, read-out: Observed efficacy
outcome.measure: inhibition of growth at 1 ppm (%)
Numbers only, in %.

Worked set:
compound: COc1ccc2c(c1F)OC(C)(C)N=C2c1cnc(C(F)F)c(C)c1
outcome.measure: inhibition of growth at 1 ppm
measurement.units: %
numeric.result: 12
//
compound: OC(Cc1ccccc1Cl)(Cn1nc[nH]c1=S)C1(Cl)CC1 (stereo not shown)
outcome.measure: inhibition of growth at 1 ppm
measurement.units: %
numeric.result: 15
//
compound: Cc1cc(C2=NC(C)(C)Oc3c(F)cccc32)cnc1C(F)F
outcome.measure: inhibition of growth at 1 ppm
measurement.units: %
numeric.result: 31

Notebook: Cc1cc(C2=NC(C)(C)Oc3c2ccc(F)c3F)cnc1C(F)F , inhibition of growth at 1 ppm read as 65

---

- Test system: Pyricularia oryzae
- assay.notes: microbe, parasite or virus in culture
- Format: cell-based
- condition.context: Pyricularia oryzae, 168 h, read-out: Observed efficacy
outcome.measure: inhibition of growth at 0.063 ppm
Enter the number, and then the unit.

Give me inhibition of growth at 0.063 ppm for each of these molecules, listed below.
1. N#Cc1c[nH]cc1-c1cccc2c1OC(F)(F)O2
2. COc1ccc2c(c1F)OC(C)(C)N=C2c1cnc(C(F)F)c(C)c1
3. O=[N+]([O-])c1cc(C(F)(F)F)c(Cl)c([N+](=O)[O-])c1Nc1ncc(C(F)(F)F)cc1Cl
4. Cc1cc(C2=NC(C)(C)Oc3c2ccc(F)c3F)cnc1C(F)F
5. Cc1cc(C2=NC(C)(C)Oc3c(F)cccc32)cnc1C(F)F

Outgoing:
["45%", "0%", "19%", "10%", "4%"]

---

- System: Pyricularia oryzae
- assay.notes: microbe, parasite or virus in culture
- Assay type: cell-based
- condition.context: Pyricularia oryzae, 168 h, read-out: Observed efficacy
Field: inhibition of growth at 0.25 ppm. Provide a value for each of the compounds that follow.
Give bare numbers, in %.

compound: CC(C)(C)C(O)(CCc1ccc(Cl)cc1)Cn1cncn1 (stereo not shown)
measurement.units: %
numeric.result: 10
--
compound: Cc1cc(C2=NC(C)(C)Oc3c(F)cccc32)cnc1C(F)F
measurement.units: %
numeric.result: 15

Give me inhibition of growth at 0.25 ppm for each of these compounds, listed below.
1. N#Cc1c[nH]cc1-c1cccc2c1OC(F)(F)O2
2. Cc1cc(C2=NC(C)(C)Oc3c2ccc(F)c3F)cnc1C(F)F

Outgoing:
1: 69; 2: 21
